# measurement target: T1, human G-CSF receptor (human, UniProt Q99062 25-836)
# T1 sequence (looked up): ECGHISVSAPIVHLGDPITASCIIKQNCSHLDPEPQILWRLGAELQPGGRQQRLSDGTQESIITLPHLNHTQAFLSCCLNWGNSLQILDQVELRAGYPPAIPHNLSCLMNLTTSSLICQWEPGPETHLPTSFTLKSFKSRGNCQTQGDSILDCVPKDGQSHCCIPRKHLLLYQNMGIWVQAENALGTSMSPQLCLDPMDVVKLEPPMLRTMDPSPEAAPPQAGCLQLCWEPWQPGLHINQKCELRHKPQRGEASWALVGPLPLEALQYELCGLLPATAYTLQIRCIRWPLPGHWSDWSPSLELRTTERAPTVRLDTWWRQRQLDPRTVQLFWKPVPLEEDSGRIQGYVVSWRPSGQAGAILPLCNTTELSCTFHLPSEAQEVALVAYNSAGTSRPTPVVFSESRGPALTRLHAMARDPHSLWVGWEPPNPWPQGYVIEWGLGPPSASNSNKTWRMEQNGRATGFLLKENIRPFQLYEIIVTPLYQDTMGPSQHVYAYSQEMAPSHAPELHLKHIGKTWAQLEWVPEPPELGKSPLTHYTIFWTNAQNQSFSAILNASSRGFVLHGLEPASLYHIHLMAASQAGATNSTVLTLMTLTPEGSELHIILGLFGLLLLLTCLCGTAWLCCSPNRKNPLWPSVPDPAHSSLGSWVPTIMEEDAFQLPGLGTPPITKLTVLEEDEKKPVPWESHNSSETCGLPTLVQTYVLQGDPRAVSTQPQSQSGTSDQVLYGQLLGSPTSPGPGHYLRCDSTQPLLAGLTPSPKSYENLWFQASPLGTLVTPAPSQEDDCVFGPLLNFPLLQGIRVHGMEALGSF
# assay method text: cell-based or functional assay
property measured: EC50 (% of hG-CSF) non-conjugated

Worked cases, answers included:
binder: G-CSF variant K16/34/40R Q77, non-conjugated (ligand) TPLGPASSLPQSFLLRCLEQVRKIQGDGAALQERLCATYRLCHPEELVLLGHSLGIPWAPLSSCPSQALQLAGCLSKLHSGLFLYQGLLQALEGISPELGPTLDTLQLDVADFATTIWQQMEELGMAPALQPTQGAMPAFASAFQRRAGGVLVASHLQSFLEVSYRVLRHLAQP
property measured: EC50 (% of hG-CSF) non-conjugated
measurement: 1 % of hG-CSF
--
binder: G-CSF variant K16/34/40R, non-conjugated (ligand) TPLGPASSLPQSFLLRCLEQVRKIQGDGAALQERLCATYRLCHPEELVLLGHSLGIPWAPLSSCPSQALQLAGCLSQLHSGLFLYQGLLQALEGISPELGPTLDTLQLDVADFATTIWQQMEELGMAPALQPTQGAMPAFASAFQRRAGGVLVASHLQSFLEVSYRVLRHLAQP
property measured: EC50 (% of hG-CSF) non-conjugated
measurement: 35 % of hG-CSF
--
binder: G-CSF variant K16/34/40R E46K, non-conjugated (ligand) TPLGPASSLPQSFLLRCLEQVRKIQGDGAALQERLCATYRLCHPEKLVLLGHSLGIPWAPLSSCPSQALQLAGCLSQLHSGLFLYQGLLQALEGISPELGPTLDTLQLDVADFATTIWQQMEELGMAPALQPTQGAMPAFASAFQRRAGGVLVASHLQSFLEVSYRVLRHLAQP
property measured: EC50 (% of hG-CSF) non-conjugated
measurement: 10 % of hG-CSF
--
binder: G-CSF variant K16/34/40R Q67K, non-conjugated (ligand) TPLGPASSLPQSFLLRCLEQVRKIQGDGAALQERLCATYRLCHPEELVLLGHSLGIPWAPLSSCPSKALQLAGCLSQLHSGLFLYQGLLQALEGISPELGPTLDTLQLDVADFATTIWQQMEELGMAPALQPTQGAMPAFASAFQRRAGGVLVASHLQSFLEVSYRVLRHLAQP
property measured: EC50 (% of hG-CSF) non-conjugated
measurement: 10 % of hG-CSF

Query: Data request, read-out EC50 (% of hG-CSF) non-conjugated, for G-CSF variant 16Q, non-conjugated (ligand) TPLGPASSLPQSFLLQCLEQVRKIQGDGAALQEKLCATYKLCHPEELVLLGHSLGIPWAPLSSCPSQALQLAGCLSQLHSGLFLYQGLLQALEGISPELGPTLDTLQLDVADFATTIWQQMEELGMAPALQPTQGAMPAFASAFQRRAGGVLVASHLQSFLEVSYRVLRHLAQP
Response: 80 % of hG-CSF

Query: State the recorded EC50 (% of hG-CSF) non-conjugated for this entry: G-CSF variant K16/34/40R Q120K S142K, non-conjugated (ligand) TPLGPASSLPQSFLLRCLEQVRKIQGDGAALQERLCATYRLCHPEELVLLGHSLGIPWAPLSSCPSQALQLAGCLSQLHSGLFLYQGLLQALEGISPELGPTLDTLQLDVADFATTIWQKMEELGMAPALQPTQGAMPAFAKAFQRRAGGVLVASHLQSFLEVSYRVLRHLAQP
Response: 10 % of hG-CSF

Query: What does the data say about its EC50 (% of hG-CSF) non-conjugated? Entry: G-CSF variant K16/23Q, non-conjugated (ligand) TPLGPASSLPQSFLLQCLEQVRQIQGDGAALQEKLCATYKLCHPEELVLLGHSLGIPWAPLSSCPSQALQLAGCLSQLHSGLFLYQGLLQALEGISPELGPTLDTLQLDVADFATTIWQQMEELGMAPALQPTQGAMPAFASAFQRRAGGVLVASHLQSFLEVSYRVLRHLAQP
Response: 80 % of hG-CSF
